Just for reference, patent US20230303695A1 is where these values come from.

Molecular target: T1, recombinant human IGSF8 extracellular domain tagged by a human Fc region (IGSF8-hFc) (human, UniProt Q969P0 28-579, biotin label in Examples 17, 18 and 28 (site not given))
T1 construct: also called IGSF8-Fc fusion protein; IGSF8-hFc-biotin; not shown: human Fc region
T1 sequence: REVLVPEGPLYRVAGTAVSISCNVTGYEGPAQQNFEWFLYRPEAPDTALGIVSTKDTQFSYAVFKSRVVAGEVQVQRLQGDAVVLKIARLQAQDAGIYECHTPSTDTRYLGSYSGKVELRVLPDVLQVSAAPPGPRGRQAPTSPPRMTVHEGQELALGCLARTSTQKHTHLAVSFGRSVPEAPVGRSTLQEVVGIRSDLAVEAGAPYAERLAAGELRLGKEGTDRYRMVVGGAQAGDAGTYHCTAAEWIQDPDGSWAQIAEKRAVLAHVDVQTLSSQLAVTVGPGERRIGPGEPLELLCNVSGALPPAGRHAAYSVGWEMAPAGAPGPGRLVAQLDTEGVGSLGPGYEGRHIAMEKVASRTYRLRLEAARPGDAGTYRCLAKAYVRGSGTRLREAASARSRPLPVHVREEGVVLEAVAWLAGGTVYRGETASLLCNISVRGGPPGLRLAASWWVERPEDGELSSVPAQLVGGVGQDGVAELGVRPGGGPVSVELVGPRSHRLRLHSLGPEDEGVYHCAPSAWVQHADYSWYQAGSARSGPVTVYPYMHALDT
Assay: SPR, Ab captured
Range-based classes on measured Kd: Low = under 3 nM, Mid = from 3 nM up to 4 nM, High = 4 nM and over

[
  {
    "Binder": "L1VL-V48D (antibody, V domains shown) VH: QVQLVESGGGVVQPGRSLRLSCAASGFTFSTYGMHWVRQAPGKGLEWVAVIWDDGSYKYYGDSVKGRFTISRDNSKNTLYLQMNSLRAEDTAVYYCARDGSGWGYAFDIWGQGTMVTVSS VL: DIQLTQSPSSLSASVGDRVTITCQASQDISEYLNWYQHKPGKAPNPLDFDAANLETGVPPRFSATGSGTDFSLTITSLQPEDFATYYCQQYDSFPYTFGQGTRLDIK",
    "Cat": "High"
  },
  {
    "Binder": "L1-27 (antibody, V domains shown) VH: QVQLVESGGGVVQPGRSLRLSCAASGFTFSTYGMHWVRQAPGKGLEWVAVIWDDGSYKYYGDSVKGRFTISRDNSKNTLYLQMNSLRAEDTAVYYCARDGSGWGYAFDIWGQGTLVTVSS VL: DIQLTQSPSSLSASVGDRVTITCQASQDISYNLNWYQHKPGKAPKPLVFGSPNLETGVPSRFSASGSGTDFTLTISSLQPEDFATYYCQQYDSFPYTFGQGTKVEIK",
    "Cat": "Low"
  },
  {
    "Binder": "L1-16 (antibody, V domains shown) VH: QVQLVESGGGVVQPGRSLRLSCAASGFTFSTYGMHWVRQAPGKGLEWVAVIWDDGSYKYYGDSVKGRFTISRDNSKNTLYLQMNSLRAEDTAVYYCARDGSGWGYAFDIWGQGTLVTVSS VL: DIQMTQSPSSLSASVGDRVTITCQASQDIGPWLNWYQQKPGKAPKLLIYGSPNLETGVPSRFSGSGSGTDFTFTISSLQPEDIATYYCQQYDSFPYTFGQGTKVEIK",
    "Cat": "Mid"
  },
  {
    "Binder": "L1VH-D99N (antibody, V domains shown) VH: QVQLVESGGGVVQPGRSLRLSCAASGFTFSTYGMHWVRQAPGKGLEWVAVIWDDGSYKYYGDSVKGRFTISRDNSKNTLYLQMNSLRAEDTAVYYCARNGSGWGYAFDIWGQGTMVTVSS VL: DIQLTQSPSSLSASVGDRVTITCQASQDISEYLNWYQHKPGKAPNPLVFDAANLETGVPPRFSATGSGTDFSLTITSLQPEDFATYYCQQYDSFPYTFGQGTRLDIK",
    "Cat": "High"
  },
  {
    "Binder": "L2-05 (antibody, V domains shown) VH: EVQLVESGGGLEQPGGSLRLSCAASGFTFRDYAMTWVRQAPGKGLEWVSAISGSGGSTYYADSVKGRFTISRDNSKNTLYLQMNSLRAEDTAIYYCARGEYSSGWPSWFDPWGQGTLVTVSS VL: EIVLTQSPSSLSASVGDRVTISCRASRTVGTFLNWYQQRPGKPPQALILGVSILEGGVSSRFSGAGSGTEFSLTISSLQPEDIGTYYCQQSHDVPRTFGQGTKVDLR",
    "Cat": "Low"
  },
  {
    "Binder": "L2-08 (antibody, V domains shown) VH: EVQLVESGGGLEQPGGSLRLSCAASGFTFRDYAMTWVRQAPGKGLEWVSSISGSGGSTYYADSVKGRFTISRDNSKNTLYLQMNSLRAEDTAIYYCARGEYSSGWPSWFDPWGQGTLVTVSS VL: DIQMTQSPSSLSASVGDRVTITCRASRTVGTFLNWYQQKPGKAPKALILGVSILEGGVPSRFSGSGSGTDFTLTISSLQPEDIATYYCQQSHDVPRTFGQGTKVEIK",
    "Cat": "Low"
  },
  {
    "Binder": "L1-21 (antibody, V domains shown) VH: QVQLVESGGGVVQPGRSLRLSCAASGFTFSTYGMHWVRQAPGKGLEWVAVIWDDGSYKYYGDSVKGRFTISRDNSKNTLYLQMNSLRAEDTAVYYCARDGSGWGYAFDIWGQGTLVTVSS VL: DIQLTQSPSSLSASVGDRVTITCQASQDIGPWLNWYQHKPGKAPKPLIYGSPNLETGVPSRFSGSGSGTDFTFTISSLQPEDIATYYCQQYDSFPYTFGQGTKVEIK",
    "Cat": "High"
  },
  {
    "Binder": "L1-17 (antibody, V domains shown) VH: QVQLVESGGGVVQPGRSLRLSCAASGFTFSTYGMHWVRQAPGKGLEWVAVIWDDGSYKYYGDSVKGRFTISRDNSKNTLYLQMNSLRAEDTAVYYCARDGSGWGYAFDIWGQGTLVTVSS VL: DIQMTQSPSSLSASVGDRVTITCQASQDIGPWLNWYQQKPGKAPKLLIYDAPNLETGVPSRFSGSGSGTDFTFTISSLQPEDIATYYCQQYDSFPYTFGQGTKVEIK",
    "Cat": "Mid"
  }
]
